- Tested on: ATP;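 note: ATP exposure 15 min at 22 °C before imaging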
- experimentSummary: switch fluorescence ratio, 500 uM ATP over buffer (Cy3 cluster intensity, sum of 5 cycles each) (fold (ratio)); higher = stronger signal-on switching upon ATP binding; sequences stand for … in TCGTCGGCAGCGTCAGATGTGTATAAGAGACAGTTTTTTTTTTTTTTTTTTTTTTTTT…TC
- conditionSet: aptamer strand: ATP DNA aptamer (quencher-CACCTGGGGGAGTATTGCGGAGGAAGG + anchor), 100 nM annealed; ATP concentration: 500 uM
endpointName: switch fluorescence ratio
Respond numerically, and do not add a unit to the figure.

Prompt: Give the reported switch fluorescence ratio for TGGTGGACGT (system: ATP).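 Note: ATP exposure 15 min at 22 °C before imaging.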
Completion: 0.997

Prompt: // map TCTGCCACCT to recorded switch fluorescence ratio (system: ATP);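 note: ATP exposure 15 min at 22 °C before imaging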
Completion: 1.02

Prompt: Return switch fluorescence ratio measured with ATP given this sequence: GCACTCTGGG
Completion: 0.995

Prompt: What value of switch fluorescence ratio on ATP does GCAGGTGGAG have?
Completion: 1.02

Prompt: Lab note: need switch fluorescence ratio with ATP for entry CGGATCTGGT , please look it up.
Completion: 0.968

Prompt: Any idea what switch fluorescence ratio came out for CTGTATAGGT on ATP?
Completion: 0.965

Prompt: API: value(readout= switch fluorescence ratio, system= ATP, query= ACCTTCGTTG );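 note: ATP exposure 15 min at 22 °C before imaging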
Completion: 1.22

Prompt: Param readout = switch fluorescence ratio; param system = ATP; param query = TTTTGGTCCA ; response: value;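 note: ATP exposure 15 min at 22 °C before imaging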
Completion: 0.981

Prompt: Please state recorded switch fluorescence ratio (tested on ATP) of GAGGGGGCGC;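 note: ATP exposure 15 min at 22 °C before imaging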
Completion: 1.02

Prompt: Query the reported switch fluorescence ratio for ATP; item: TACGGGGTTT
Completion: 0.996

Prompt: So what switch fluorescence ratio did TGATTAATTT get with ATP?
Completion: 0.984

Prompt: Item: GATTGGTCTT Test system: ATP Read-out: switch fluorescence ratio Value: ?;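 note: ATP exposure 15 min at 22 °C before imaging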
Completion: 0.976

Prompt: Hello, I am looking for reported switch fluorescence ratio with ATP for GTTTGGGATA . Could you help?
Completion: 0.992

Prompt: What is its switch fluorescence ratio for ATP? Entry: TAAGGGTCTT
Completion: 0.996

Prompt: Hello, I am looking for reported switch fluorescence ratio with ATP for CGACGTGGCG . Could you help?
Completion: 0.981

Prompt: Fill in the recorded switch fluorescence ratio for this sequence, with ATP as test system: CTGTTTTTAT
Completion: 1.01

Prompt: Give switch fluorescence ratio (ATP) of the following sequence: TATTGATATT
Completion: 1.06

Prompt: Observed switch fluorescence ratio on ATP for TGGTAAATCG , please.
Completion: 1.03

Prompt: What switch fluorescence ratio appears in the records for this sequence with ATP? TTGATAAAGT
Completion: 0.997

Prompt: What switch fluorescence ratio appears in the records for this sequence with ATP? CGAGGGTGCA
Completion: 1.04

Prompt: ATP / switch fluorescence ratio / CGGGCTGGAA : value?
Completion: 1

Prompt: Lookup: switch fluorescence ratio / ATP / GTGTGATCTC
Completion: 0.992

Prompt: Form entry - test system: ATP; read-out: switch fluorescence ratio; sequence: TTGTATTTGG;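 note: ATP exposure 15 min at 22 °C before imaging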
Completion: 1.02

Prompt: What measured switch fluorescence ratio is associated with AGGAGGACGG on ATP?
Completion: 1.01

Prompt: So what switch fluorescence ratio did GATGATGTTT get with ATP?
Completion: 0.973

Prompt: For ATP, provide switch fluorescence ratio of GTGGGGAATC please.
Completion: 1.02

Prompt: Request: switch fluorescence ratio, test system ATP, entry TGCTGGAAGT;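 note: ATP exposure 15 min at 22 °C before imaging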
Completion: 0.977

Prompt: Write down the reported switch fluorescence ratio of GCAGTCTTTG , test system: ATP.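 Note: ATP exposure 15 min at 22 °C before imaging.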
Completion: 0.994

Prompt: Record TTTTTTTAGG : what is its switch fluorescence ratio with ATP?
Completion: 0.982

Prompt: # value lookup — system ATP, readout switch fluorescence ratio, item GAAGATAGTG;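 note: ATP exposure 15 min at 22 °C before imaging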
Completion: 0.986

Prompt: Record lookup: for ATP, what switch fluorescence ratio belongs to AGGTGACAGT ?
Completion: 0.982

Prompt: Tell me reported switch fluorescence ratio for GCAGCCGTGT , tested with ATP.
Completion: 1.03

Prompt: Please tell me: switch fluorescence ratio of CAACGTGGGG , system ATP?;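 note: ATP exposure 15 min at 22 °C before imaging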
Completion: 0.99

Prompt: Form: Entry = AAGTCACATC | System = ATP | switch fluorescence ratio = ____;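 note: ATP exposure 15 min at 22 °C before imaging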
Completion: 1.22

Prompt: Give switch fluorescence ratio (ATP) of the following sequence: TATAAGCTAG
Completion: 1.03

Prompt: Give the reported switch fluorescence ratio for AGGTTCAGCA (system: ATP).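 Note: ATP exposure 15 min at 22 °C before imaging.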
Completion: 1

Prompt: What measured switch fluorescence ratio is associated with CGGGGGATAG on ATP?
Completion: 1.06

Prompt: Missing value: switch fluorescence ratio, ATP, entry TACGTTTCC . Fill in?
Completion: 1.14

Prompt: Checklist item: switch fluorescence ratio tested on ATP, entry CTTTTAAGGT , value?;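 note: ATP exposure 15 min at 22 °C before imaging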
Completion: 0.984

Prompt: Record TTTGGGCTCC : what is its switch fluorescence ratio with ATP?
Completion: 0.98

Prompt: Query switch fluorescence ratio on ATP for TCCACATCAA
Completion: 1.2

Prompt: I'm curious: which switch fluorescence ratio was measured for TGCGGTCGCG tested on ATP?;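 note: ATP exposure 15 min at 22 °C before imaging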
Completion: 0.959

Prompt: # value lookup — system ATP, readout switch fluorescence ratio, item GGCACATTTT;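 note: ATP exposure 15 min at 22 °C before imaging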
Completion: 1.01

The origin of these recorded values is the supplement of paper PMC10126150.
